assay: binders of probe aFSTL3 on microarray, primary screen, stem cell growth factor project, biochemical, small-molecule microarray, fluorescence 635/667 (AID 1064); conditions: higher = more signal;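 note: measures binding of the biotinylated anti-FSTL3 antibody to printed compounds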
Could you label it True if measured composite z-score is -0.5 or higher, and False otherwise?

**Query** Dear colleague, could you confirm whether `C=CCOC(=O)[C@H]1[C@@H]2C(=O)O[C@@H](c3ccccc3)[C@@H](c3ccccc3)N2[C@@H](c2ccc(OCCOC(=O)[C@@H]3C[C@@H]4C(=O)N[C@@H](CCCC[N+](C)(C)C)C(=O)N4[C@@H]3c3ccc(O)cc3)cc2)[C@]12C(=O)Nc1ccccc12` has composite z-score at or above -0.5?
**Result** False

**Query** Dear colleague, could you confirm whether [N-]=[N+]=Nc1ccccc1C[C@]1(C(=O)NCC(O)CO)N=C(c2ccc(OCCCO)cc2)O[C@H]1c1ccccc1N=[N+]=[N-] (stereo partly specified) has composite z-score at or above -0.5?
**Result** True

**Query** Dear colleague, could you confirm whether `C[C@@H]1ON(c2cccc(C(=O)OC(C)(C)C)c2)[C@H](c2ccc(Br)cc2)[C@H]1C(=O)N1C(=O)OC[C@H]1Cc1ccccc1` has composite z-score at or above -0.5?
**Result** False

**Query** Dear colleague, could you confirm whether `[N-]=[N+]=NCc1ccccc1[C@@H]1OC(c2ccc(OCCCO)cc2)=N[C@]1(CCS(=O)(=O)c1ccccc1)C(=O)NCc1ccccc1` has composite z-score at or above -0.5?
**Result** True

**Query** Dear colleague, could you confirm whether Cc1ccc(C(C)CC(O)C2C=CC3C(=O)N(c4ccccc4)C(=O)C3N2Nc2ccc([N+](=O)[O-])cc2)o1 (stereo unspecified) has composite z-score at or above -0.5?
**Result** True

Alright, here's another compound for you.
**Query** Dear colleague, could you confirm whether `CCOC(=O)C[C@H]1[C@H](OC(=O)c2cc3ccccc3oc2=O)[C@@H](NC(=O)C2CCCCC2)c2cc(OCCCO)ccc2N1C(=O)c1ccccc1` has composite z-score at or above -0.5?
**Result** False

* * *

target: Follistatin (Homo sapiens) (UniProt P19883); experiment: follistatin binders on small-molecule microarrays, primary screen, biochemical, small-molecule microarray, 635/667 nm fluorescence (AID 1132); settings: FST binding, 635 nm fluorescence, higher = more signal
Sequence (P19883 whole entry, looked up): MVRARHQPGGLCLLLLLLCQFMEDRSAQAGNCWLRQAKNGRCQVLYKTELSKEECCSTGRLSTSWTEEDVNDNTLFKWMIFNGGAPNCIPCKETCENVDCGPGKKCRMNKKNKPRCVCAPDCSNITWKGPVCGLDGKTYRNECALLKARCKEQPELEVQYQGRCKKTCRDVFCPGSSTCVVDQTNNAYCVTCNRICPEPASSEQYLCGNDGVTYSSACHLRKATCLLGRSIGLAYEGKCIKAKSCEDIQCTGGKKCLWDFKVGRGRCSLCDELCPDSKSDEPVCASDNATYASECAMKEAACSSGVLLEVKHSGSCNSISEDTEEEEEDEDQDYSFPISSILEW
Could you label it 1 (yes) if measured composite z-score is 1 or higher, and 0 (no) otherwise?

Recorded results for 5 compounds are shown here.
**Query** Dear colleague, could you confirm whether COCCCNC(=O)C1N=C(c2ccc(OCCCO)cc2)N(c2ccccc2)O1 (stereo not given) has composite z-score at or above 1?
**Result** 1 (yes)

**Query** Dear colleague, could you confirm whether O=C1OCCC/C=C\[C@H]2OC34C=CCN(Cn5nnc6ccccc65)C(=O)[C@H]3N(CCO)C(=O)[C@@H]4C12 (stereo not given in full) has composite z-score at or above 1?
**Result** 0 (no)

**Query** Dear colleague, could you confirm whether `CCCC=C(CCC)[C@@H](NC(=O)Oc1ccc(F)cc1)c1ccc(C(=O)OC)cc1` has composite z-score at or above 1?
**Result** 0 (no)

**Query** Dear colleague, could you confirm whether `O=C1O[C@@H](c2ccccc2)[C@@H](c2ccccc2)N2[C@@H](c3ccc(OCCO)cc3)[C@]3(C(=O)Nc4ccccc43)[C@@H](C(=O)NC[C@H](O)c3ccccc3)[C@H]12` has composite z-score at or above 1?
**Result** 1 (yes)

**Query** Dear colleague, could you confirm whether C=CCC(OC(C)=O)[C@@H]1[C@@H](N(Cc2cccc3ccccc23)C(=O)c2ccc(-c3ccccc3)cc2)c2cc(OCCCO)ccc2N1C(=O)Cc1ccc(OC)cc1 (stereo not given in full) has composite z-score at or above 1?
**Result** 0 (no)

Alright, here's another compound for you.
**Query** Dear colleague, could you confirm whether `COC(=O)[C@@]1(Cc2ccc(OC)cc2)[C@H]2c3cc(C(=O)N4CCCC4)n(Cc4ccc(OC)c(OC)c4)c3C[C@H]2CN1C(=O)c1ccccc1` has composite z-score at or above 1?
**Result** 1 (yes)

* * *

system: Chordin-like protein 2 (CHRDL2); test: CHRDL2 small-molecule binders, primary screen, biochemical, small-molecule microarray, 635 nm fluorescence (AID 1126); settings: small-molecule microarray binding, fluorescence 635 nm; higher = more signal;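 note: printed compound slides probed with Chrdl2 protein at 4 µg/mL for 1 h at 4 C; score merges 667 nm emission intensity with signal to noise over three replicate slides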
measurement name: composite z-score
Respond with the number and no other words.

# annotated cases, reported composite z-score shown
**Query** Entry under review: `CCCCCCC#C[Si](O[C@H](c1ccccc1)c1cn([C@H](CO)Cc2ccccc2)nn1)(C(C)C)C(C)C` . Reported composite z-score?
**Result** -0.346

**Query** Entry under review: `O=C1[C@H]2C=C(Br)[C@H](C[C@@H]2c2ccccc2)[C@@]12CO2` . Reported composite z-score?
**Result** 0.945

**Query** Entry under review: O=C1NC(=O)C2C1C=CC(C(O)c1ccccc1)N2Nc1ccc(Cl)cc1Cl (stereo not given) . Reported composite z-score?
**Result** -0.238

Next:
**Query** Entry under review: COc1ccc(C(O)C2C=CC3C(=O)NC(=O)C3N2Nc2ccccn2)c2ccccc12 (stereo not given) . Reported composite z-score?
**Result** 0.485

**Query** Entry under review: `[N-]=[N+]=NCc1ccccc1[C@@H]1OC(c2ccc(OCCCO)cc2)=N[C@]1(Cc1ccccc1N=[N+]=[N-])C(=O)N1CCOCC1` . Reported composite z-score?
**Result** -0.119

**Query** Entry under review: `CCOC(=O)C[C@H]1[C@H](OC(=O)c2cc3ccccc3oc2=O)[C@@H](NC(=O)C2CCCCC2)c2cc(OCCCO)ccc2N1C(=O)c1ccccc1` . Reported composite z-score?
**Result** 0.438

**Query** Entry under review: `COC(=O)c1c(CC[C@@H](CO)NC(=O)N[C@H](Cn2cc(Cc3ccccc3)nn2)C(C)C)oc(C(C)=O)c1C(=O)OC` . Reported composite z-score?
**Result** 0.0618

**Query** Entry under review: `O=C(c1ccccc1)N1Cc2ccccc2[C@@H]2OC(c3ccc(OCCCO)cc3)=N[C@]2(Cc2ccccc2)C1=O` . Reported composite z-score?
**Result** 0.061

**Query** Entry under review: CCOC(=O)[C@H]1CC=C2CC1C(=O)N1CCC[C@@H]1[C@@H]2O[Si](C)(C)C(C)(C)C (stereo not given in full) . Reported composite z-score?
**Result** -0.287

**Query** Entry under review: `COCCCNC(=O)[C@@]1(Cc2ccccc2)N=C(c2ccc(OCCCO)cc2)O[C@H]1c1ccccc1` . Reported composite z-score?
**Result** -1.1

**Query** Entry under review: `COC(=O)[C@@]1(Cc2ccc(F)cc2)[C@H]2c3cc(C(=O)N(C)C)n(Cc4ccc(S(C)(=O)=O)cc4)c3C[C@H]2CN1C(=O)c1ccccc1` . Reported composite z-score?
**Result** -0.0016

**Query** Entry under review: [N-]=[N+]=NCc1ccccc1C[C@@]1(C(=O)NCC(O)CO)N=C(c2ccc(OCCCO)cc2)O[C@@H]1c1ccccc1N=[N+]=[N-] (stereo not given in full) . Reported composite z-score?
**Result** -0.655

**Query** Entry under review: `O=C1c2ccccc2[C@](Cc2ccccc2I)(C(=O)NC2CC2)[C@H](c2ccc(CO)cc2)N1Cc1ccccc1` . Reported composite z-score?
**Result** -0.0374

**Query** Entry under review: COc1ccc(NN2C(C(O)c3ccc([N+](=O)[O-])cc3)C=CC3C(=O)N(C4CCCCC4)C(=O)C32)cc1 (stereo not given) . Reported composite z-score?
**Result** -0.261

**Query** Entry under review: `COc1cc2c(cc1OC)CN(C(=O)[C@H]1[C@@H]3C(=O)O[C@@H](c4ccccc4)[C@@H](c4ccccc4)N3[C@@H](c3ccc(O)cc3)[C@]13C(=O)Nc1ccc(C#CC4=CCCCC4)cc13)CC2` . Reported composite z-score?
**Result** 0.575

* * *

assay: basal RPMI8226 mitochondrial membrane potential changes, profiling panel, cell-based, JC-1 fluorescence, 24 h, 100 nL compound (AID 1169); conditions: RPMI8226 myeloma, JC-1 mitochondrial potential fluorescence, higher = more signal; note: test concentration not given here
So basically every entry gets a class from its z-score, ranges being low interval = under -0.9, middle interval = from -0.9 up to -0.5, high interval = -0.5 and over

**Query** Band assignment needed for CCOC1=C2C(CN(S(=O)(=O)c3ccc(C)cc3)C2c2ccc(C)cc2)C2C(=O)N(c3ccccc3)C(=O)C2C1 (centres undefined) please.
**Result** high interval

**Query** Band assignment needed for `CC(C)(C)OC(=O)CC[C@@]1(C(=O)NCCN2CCOCC2)N=C(c2ccc(OCCCO)cc2)O[C@@H]1c1ccccc1N=[N+]=[N-]` please.
**Result** low interval

**Query** Band assignment needed for `COc1ccc([Si](C)(C)[C@H]2[C@H](CCO)O[C@@]3(C(=O)N(C)c4c(Br)cc(C)cc43)[C@@H]2C)cc1` please.
**Result** low interval

**Query** Band assignment needed for `CC(C)(C)OC(=O)CC[C@@]12N=C(c3ccc(OCCCO)cc3)O[C@@H]1c1ccccc1N(CCS(=O)(=O)c1ccccc1)C2=O` please.
**Result** middle interval

**Query** Band assignment needed for `CC(C)(C)OC(=O)CC[C@]12N=C(c3ccc(OCCCO)cc3)O[C@H]1c1ccccc1N(CCS(=O)(=O)c1ccccc1)C2=O` please.
**Result** low interval

**Query** Band assignment needed for OC([C@@H]1CC(c2ccccc2)=NO1)[C@H]1CC(c2ccccc2)=NO1 (some centres undefined) please.
**Result** middle interval

**Query** Band assignment needed for `C=CCOC(=O)[C@@H]1[C@H]2C(=O)O[C@H](c3ccccc3)[C@H](c3ccccc3)N2[C@H](c2ccc(OCCOC(=O)[C@@H]3C[C@@H]4C(=O)N[C@@H](CCCCN(C)C)C(=O)N4[C@@H]3c3ccc(O)cc3)cc2)[C@@]12C(=O)Nc1ccc(I)cc12` please.
**Result** low interval

**Query** Band assignment needed for CC(CO)N1C(=O)[C@@H]2C3C(=O)OCCC/C=C\[C@H]3OC23C=CCN(c2ccc4ccccc4c2)C(=O)[C@@H]13 (some centres undefined) please.
**Result** middle interval

**Query** Band assignment needed for `COc1ccc(C(=O)Nc2ccc(CN3C(=O)[C@@]4(O[C@@H](CCn5cc([C@H](O)c6ccccc6)nn5)[C@H]([Si](C)(C)c5ccc(OC)cc5)[C@H]4C)c4ccccc43)cc2)cc1` please.
**Result** low interval

**Query** Band assignment needed for `CCCCC(=C=CC[C@@H](O)c1ccccc1OCCO)CCO` please.
**Result** high interval
